# SYSTEM: Mast/stem cell growth factor receptor Kit (Homo sapiens);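 note: values given as mean inhibition of KIT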
# CONDITION_DESCRIPTION: at 1 µM
Attribute: inhibition
PARAMETER_MEASURED: inhibition (%)

O=C(Nc1n[nH]c2cc(-c3cc(F)ccc3F)ccc12)C1CC1 | 7.05
NCc1ccc(-n2c(-c3nonc3N)nc3cnccc32)cc1 | 10.8
COc1cccc(-n2cnc3c(N/N=C/c4ccncc4)ncnc32)c1 | 83.4
C[C@@H](Oc1cc(-n2cnc3ccc(OCC4CCN(C)CC4)cc32)sc1C(N)=O)c1ccccc1Cl | 8.33
Fc1ccc(-c2c(-c3ccncc3)nc3n2CCS3)cc1 | 9.55
Cc1nnc(-c2ccc(C)c(-c3ccc(C(=O)NCc4ccc(Cl)cc4)cc3)c2)o1 | 3.81

----------
Attribute: inhibition
# SYSTEM: Dual specificity protein kinase CLK2 (Homo sapiens) (UniProt P49760);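 note: reported values are mean percent inhibition of CLK2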
# Sequence (P49760 whole entry, looked up): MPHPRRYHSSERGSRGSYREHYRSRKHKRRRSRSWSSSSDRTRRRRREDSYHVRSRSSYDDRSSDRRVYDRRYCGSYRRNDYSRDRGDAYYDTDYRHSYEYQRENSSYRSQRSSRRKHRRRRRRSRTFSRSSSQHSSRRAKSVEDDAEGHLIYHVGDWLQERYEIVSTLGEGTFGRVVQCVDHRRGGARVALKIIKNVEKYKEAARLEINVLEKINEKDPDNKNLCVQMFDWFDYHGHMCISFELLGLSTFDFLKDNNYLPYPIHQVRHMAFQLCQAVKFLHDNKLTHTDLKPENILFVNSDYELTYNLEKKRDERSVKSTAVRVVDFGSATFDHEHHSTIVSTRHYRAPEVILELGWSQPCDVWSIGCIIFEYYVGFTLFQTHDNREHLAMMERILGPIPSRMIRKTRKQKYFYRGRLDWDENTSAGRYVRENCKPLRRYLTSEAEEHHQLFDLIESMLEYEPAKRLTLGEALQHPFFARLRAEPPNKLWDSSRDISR
# CONDITION_DESCRIPTION: at 1 µM
PARAMETER_MEASURED: inhibition (%)

NC(=O)Cc1ccccc1Oc1nccc(-c2c(-c3ccc(F)cc3)ncn2C2CCNCC2)n1 | 2.11
NS(=O)(=O)c1ccc(N/N=C2\C(=O)Nc3ccc(-c4cnco4)cc32)cc1 | 35.9
O=C1NC(=O)C(c2cccc(Cl)c2)=C1Nc1ccc(Cl)c(C(=O)O)c1 | 0.9
Fc1ccc(-c2ncn(C3CCNCC3)c2-c2ccnc(Oc3ccc(F)c(F)c3)n2)cc1 | -0.42
COC(=O)Nc1nc2ccc(Sc3ccc(NC(=O)Nc4cc(C(F)(F)F)ccc4F)cc3)cc2[nH]1 | -0.84
COc1cc2ncn(-c3cc(OCCc4ccccc4)c(C(N)=O)s3)c2cc1OC | 2.64
CN(c1ccc(NC(=O)Nc2c(Cl)cccc2Cl)cc1)c1ccnc(Nc2cccc(CS(C)(=O)=O)c2)n1 | 5.49
COc1ccc2cc(-c3c(-c4ccncc4)nc(-c4ccc(S(C)(=O)=O)cc4C)n3C)ccc2c1 | -1.59
CCc1cccc(CC)c1/C=C/c1cncc(C(=O)NC)c1 | 3.8

----------
# SYSTEM: ALK tyrosine kinase receptor (Homo sapiens);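 note: values are mean percent inhibition of ALK, screened as part of the GSK PKIS panel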
# CONDITION_DESCRIPTION: at 1 µM
PARAMETER_MEASURED: inhibition (%)

CCN(CC)Cc1ccc(Nc2nccc(-c3cnn4ncccc34)n2)cc1 | 24.4
NS(=O)(=O)c1ccc(Nc2cc(-c3ccc(O)c(F)c3)n[nH]2)cc1 | 8.38
CN(C)c1ccc2c(c1)/C(=C/Nc1ccc(S(N)(=O)=O)cc1)C(=O)N2 | 8.32
Nc1nccc(-c2c(-c3ccc(F)cc3)ncn2C2CCC(O)CC2)n1 (stereo unspecified) | 2.88
COc1cccc(/C=N/Nc2ncnc3c2cnn3-c2cccc(OC)c2)c1 | 2.63
COc1ccc(-c2ccc3c(NC(=O)C4CC4)n[nH]c3n2)cc1 | 1.76
c1ccc(Oc2ccc(Nc3ncc(-c4ccccc4)o3)cc2)cc1 | 2.22
NS(=O)(=O)c1ccc(N/N=C2\C(=O)Nc3ccc(C(=O)NCCCn4ccnc4)cc32)cc1 | 11.1
Fc1ccc(-c2nc3n(c2-c2ccncc2)CCS3)cc1 | 0.29
COc1cc(C)c(N(C)C(=O)CN(C)C)cc1Nc1nc(Nc2cccc(F)c2C(N)=O)c2cc[nH]c2n1 | 69.9
COc1ccc2cc(-c3c(-c4ccncc4)nc(-c4ccc(S(C)(=O)=O)cc4C)n3C)ccc2c1 | 6.27
Clc1ccc(CNc2nccc(-c3cnn4ncccc34)n2)cc1 | 3.1
CCc1cccc(CC)c1/C=C/c1cncc(C(=O)NC)c1 | 4.03
CS(=O)(=O)CCNCc1cc(-c2cc3c(Nc4ccc(OCc5cccc(F)c5)c(Cl)c4)ncnc3s2)cs1 | 4.5
Fc1ccc(-c2c(-c3ccncc3)nc3n2CCS3)cc1 | -1.88
CCS(=O)(=O)c1ccc(OC)c(Nc2ncc(-c3ccccc3Cl)o2)c1 | 5.19
